molecular target: Phosphatidylinositol 4,5-bisphosphate 3-kinase catalytic subunit gamma isoform (Homo sapiens, UniProt P48736); assay: Inhibition of PI3Kgamma (unknown origin) by biochemical Alphascreen assay
Sequence (P48736 whole entry, canonical isoform): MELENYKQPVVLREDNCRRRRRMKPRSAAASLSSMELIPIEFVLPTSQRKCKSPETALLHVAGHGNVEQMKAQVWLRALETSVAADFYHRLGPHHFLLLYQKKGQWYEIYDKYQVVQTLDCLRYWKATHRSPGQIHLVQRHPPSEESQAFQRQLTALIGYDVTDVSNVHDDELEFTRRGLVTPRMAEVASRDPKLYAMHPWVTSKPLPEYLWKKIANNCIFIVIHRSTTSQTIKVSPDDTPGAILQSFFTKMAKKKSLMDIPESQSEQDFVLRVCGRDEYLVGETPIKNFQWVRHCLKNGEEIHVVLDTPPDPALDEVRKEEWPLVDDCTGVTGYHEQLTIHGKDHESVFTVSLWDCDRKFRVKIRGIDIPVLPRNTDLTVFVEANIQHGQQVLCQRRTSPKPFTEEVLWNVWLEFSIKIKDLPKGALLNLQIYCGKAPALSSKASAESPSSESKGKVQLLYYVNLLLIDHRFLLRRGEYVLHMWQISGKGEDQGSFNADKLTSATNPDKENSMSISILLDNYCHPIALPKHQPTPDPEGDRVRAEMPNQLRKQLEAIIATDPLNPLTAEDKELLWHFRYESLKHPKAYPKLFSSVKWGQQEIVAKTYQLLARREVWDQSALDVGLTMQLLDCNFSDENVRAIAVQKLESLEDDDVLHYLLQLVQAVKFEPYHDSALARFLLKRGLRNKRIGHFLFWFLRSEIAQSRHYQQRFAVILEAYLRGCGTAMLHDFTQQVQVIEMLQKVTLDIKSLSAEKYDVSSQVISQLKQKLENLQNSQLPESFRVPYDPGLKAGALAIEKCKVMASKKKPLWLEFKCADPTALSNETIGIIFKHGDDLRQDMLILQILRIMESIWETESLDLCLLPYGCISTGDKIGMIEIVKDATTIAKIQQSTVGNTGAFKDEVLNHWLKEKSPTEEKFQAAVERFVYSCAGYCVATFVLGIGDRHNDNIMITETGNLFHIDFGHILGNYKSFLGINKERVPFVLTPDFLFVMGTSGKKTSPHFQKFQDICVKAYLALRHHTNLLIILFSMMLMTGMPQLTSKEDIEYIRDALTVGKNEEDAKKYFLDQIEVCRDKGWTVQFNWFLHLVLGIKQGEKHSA
pIC50: −log10 of the molar value.
Use Yes when the recorded pIC50 is no lower than 7; use No when it is lower.

INSERT INTO assay_data (molecule, category) VALUES
  ('C[C@H](Nc1ncnc(N)c1C#N)c1nc2ccc(F)cc2c(S(C)(=O)=O)c1-c1ccccc1', 'No'),
  ('CC(Nc1ncnc(N)c1C#N)c1nc2ccc(F)cc2c(C#N)c1-c1ccccn1 (racemic)', 'No'),
  ('C[C@H](Nc1ncnc(N)c1C#N)c1nc2ccc(F)cc2c(NCCN(C)C)c1-c1ccccc1', 'No'),
  ('C[C@H](Nc1ncnc(N)c1C#N)c1nc2ccc(F)cc2c(N2CCOCC2)c1-c1ccccn1', 'No'),
  ('CC(Nc1ncnc(N)c1C#N)c1nc2ccc(F)cc2c(Cl)c1-c1ccccn1 (racemic)', 'No'),
  ('COCCNc1c(-c2ccccc2)c([C@H](C)Nc2ncnc(N)c2C#N)nc2ccc(F)cc12', 'Yes');

---

target: Phosphatidylinositol 4,5-bisphosphate 3-kinase catalytic subunit gamma isoform (Homo sapiens); assay: Inhibition of PI3Kgamma (unknown origin) by biochemical Alphascreen assay
pIC50: −log10 of the molar value.
EXPERIMENTAL READOUT: pIC50

INSERT INTO measurements (compound, comparison_sign, reading) VALUES
  ('COc1c(-c2ccccc2)c([C@H](C)Nc2ncnc(N)c2C#N)nc2ccc(F)cc12', '=', 7.96),
  ('C[C@H](Nc1ncnc(N)c1C#N)c1nc2ccc(F)cc2c([S+]([O-])CCO)c1-c1ccccc1 (some centres undefined)', '=', 6.42),
  ('C[C@H](Nc1ncnc(N)c1C#N)c1nc2ccc(F)cc2c(NCCS(C)(=O)=O)c1-c1ccccc1', '=', 7.72),
  ('CC(Nc1ncnc(N)c1C#N)c1nc2ccc(F)cc2c(O)c1-c1ccccc1 (racemic)', '=', 6.68),
  ('C[C@H](Nc1ncnc(N)c1C#N)c1nc2ccc(F)cc2c(N2CC(O)C2)c1-c1ccccn1', '=', 6.29),
  ('CC(Nc1ncnc(N)c1C#N)c1nc2ccc(F)cc2cc1-c1ccccn1 (racemic)', '=', 5.96),
  ('CC(Nc1ncnc(N)c1C#N)c1nc2ccc(F)cc2c(N(C)C)c1-c1ccccn1 (racemic)', '=', 6.54),
  ('COCc1c(-c2ccccn2)c([C@H](C)Nc2ncnc(N)c2C#N)nc2ccc(F)cc12', '=', 5.31),
  ('Cc1cccnc1-c1c(-c2ccccn2)c([C@H](C)Nc2ncnc(N)c2C#N)nc2ccc(F)cc12', '<', 4.70);

---

# log10(IC50) per entry
biological target: Phosphatidylinositol 4,5-bisphosphate 3-kinase catalytic subunit alpha isoform (Homo sapiens, UniProt P42336); assay: Inhibition of PI3Kalpha (unknown origin) by biochemical Alphascreen assay
Sequence (P42336 whole entry, canonical isoform): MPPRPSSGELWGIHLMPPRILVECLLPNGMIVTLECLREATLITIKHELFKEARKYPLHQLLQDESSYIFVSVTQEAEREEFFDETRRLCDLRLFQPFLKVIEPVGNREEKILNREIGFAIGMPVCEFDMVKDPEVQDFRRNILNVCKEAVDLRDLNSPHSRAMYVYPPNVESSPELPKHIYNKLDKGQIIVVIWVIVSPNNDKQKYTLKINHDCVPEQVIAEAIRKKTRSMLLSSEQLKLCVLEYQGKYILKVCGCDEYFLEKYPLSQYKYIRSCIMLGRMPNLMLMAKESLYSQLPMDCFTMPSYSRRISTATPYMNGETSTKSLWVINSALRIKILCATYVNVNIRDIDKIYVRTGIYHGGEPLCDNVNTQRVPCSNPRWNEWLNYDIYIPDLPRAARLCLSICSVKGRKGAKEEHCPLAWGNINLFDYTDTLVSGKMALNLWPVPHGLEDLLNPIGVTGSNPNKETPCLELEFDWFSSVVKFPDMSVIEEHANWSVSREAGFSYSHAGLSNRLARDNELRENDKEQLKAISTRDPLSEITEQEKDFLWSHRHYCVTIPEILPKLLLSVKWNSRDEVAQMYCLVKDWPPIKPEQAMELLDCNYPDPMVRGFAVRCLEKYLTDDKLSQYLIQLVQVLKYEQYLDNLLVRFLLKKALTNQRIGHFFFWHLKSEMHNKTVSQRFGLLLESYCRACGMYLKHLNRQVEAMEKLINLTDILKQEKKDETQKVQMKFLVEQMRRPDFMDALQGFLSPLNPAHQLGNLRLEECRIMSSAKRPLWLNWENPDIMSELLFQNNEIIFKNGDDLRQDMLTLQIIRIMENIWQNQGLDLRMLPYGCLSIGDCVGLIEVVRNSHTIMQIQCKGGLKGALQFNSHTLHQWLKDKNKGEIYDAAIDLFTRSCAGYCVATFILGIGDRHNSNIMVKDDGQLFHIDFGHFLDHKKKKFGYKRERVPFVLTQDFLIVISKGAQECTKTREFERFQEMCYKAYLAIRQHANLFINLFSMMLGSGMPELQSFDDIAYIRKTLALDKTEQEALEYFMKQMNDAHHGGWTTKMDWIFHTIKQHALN
EXPERIMENTAL READOUT: log10(IC50) (log10 of the value in µM)

INSERT INTO results (molecule, reading) VALUES
  ('C[C@H](Nc1ncnc(N)c1C#N)c1nc2ccc(F)cc2c(N2CCOCC2)c1-c1ccccn1', -0.08),
  ('CC(Nc1ncnc(N)c1C#N)c1nc2ccc(F)cc2c(C#N)c1-c1ccccn1 (racemic)', 0.64),
  ('C[C@H](Nc1ncnc(N)c1C#N)c1nc2ccc(F)cc2c(NCCS(C)(=O)=O)c1-c1ccccc1', -0.05),
  ('COc1c(-c2ccccc2)c([C@H](C)Nc2ncnc(N)c2C#N)nc2ccc(F)cc12', -0.38),
  ('CC(Nc1ncnc(N)c1C#N)c1nc2ccc(F)cc2c(N(C)C)c1-c1ccccn1 (racemic)', 0.06),
  ('C[C@H](Nc1ncnc(N)c1C#N)c1nc2ccc(F)cc2c(S(C)(=O)=O)c1-c1ccccc1', -0.04),
  ('CC(Nc1ncnc(N)c1C#N)c1nc2ccc(F)cc2c(Cl)c1-c1ccccn1 (racemic)', 0.14),
  ('CC(Nc1ncnc(N)c1C#N)c1nc2ccc(F)cc2c(NCCO)c1-c1ccccc1 (racemic)', 0.08),
  ('C[C@H](Nc1ncnc(N)c1C#N)c1nc2ccc(F)cc2c(N2CC(O)C2)c1-c1ccccn1', 0.08),
  ('C[C@H](Nc1ncnc(N)c1C#N)c1nc2ccc(F)cc2c([S+]([O-])CCO)c1-c1ccccc1 (stereo not given in full)', -0.21),
  ('C[C@H](Nc1ncnc(N)c1C#N)c1nc2ccc(F)cc2c(NCCN(C)C)c1-c1ccccc1', 0.20),
  ('COCCNc1c(-c2ccccc2)c([C@H](C)Nc2ncnc(N)c2C#N)nc2ccc(F)cc12', 0.03);
